# assay target: Histone deacetylase 2 (Homo sapiens, UniProt Q92769)
# Sequence (Q92769 whole entry): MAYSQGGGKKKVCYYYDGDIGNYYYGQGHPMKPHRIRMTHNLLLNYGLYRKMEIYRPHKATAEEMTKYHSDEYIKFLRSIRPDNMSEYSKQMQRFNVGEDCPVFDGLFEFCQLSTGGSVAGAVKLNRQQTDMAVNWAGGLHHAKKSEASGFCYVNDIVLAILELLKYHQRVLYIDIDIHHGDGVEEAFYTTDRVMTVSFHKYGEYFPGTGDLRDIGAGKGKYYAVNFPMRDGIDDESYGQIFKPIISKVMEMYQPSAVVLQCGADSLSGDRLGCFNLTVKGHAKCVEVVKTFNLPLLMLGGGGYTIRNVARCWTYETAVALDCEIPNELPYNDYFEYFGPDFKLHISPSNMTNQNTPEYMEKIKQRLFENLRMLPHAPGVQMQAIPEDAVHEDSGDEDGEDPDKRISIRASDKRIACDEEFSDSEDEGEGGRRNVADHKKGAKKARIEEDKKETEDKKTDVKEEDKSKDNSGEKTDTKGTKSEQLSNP
# experiment notes: Inhibition of recombinant human HDAC2 using HDAC substrate incubated for 30 mins by fluorescence based microplate reader analysis
pIC50: −log10 of the molar value.
observation type: pIC50

>>> recorded_value("C[C@H]1COc2c(N3CCN(C)CC3)c(F)cc3c(=O)c(C(=O)NCC4CN(CC(=O)NO)N=N4)cn1c23 (stereo partly specified)")
7.39

----------
# assay target: Androgen receptor (Rattus norvegicus)
# Sequence (P15207 whole entry S389L): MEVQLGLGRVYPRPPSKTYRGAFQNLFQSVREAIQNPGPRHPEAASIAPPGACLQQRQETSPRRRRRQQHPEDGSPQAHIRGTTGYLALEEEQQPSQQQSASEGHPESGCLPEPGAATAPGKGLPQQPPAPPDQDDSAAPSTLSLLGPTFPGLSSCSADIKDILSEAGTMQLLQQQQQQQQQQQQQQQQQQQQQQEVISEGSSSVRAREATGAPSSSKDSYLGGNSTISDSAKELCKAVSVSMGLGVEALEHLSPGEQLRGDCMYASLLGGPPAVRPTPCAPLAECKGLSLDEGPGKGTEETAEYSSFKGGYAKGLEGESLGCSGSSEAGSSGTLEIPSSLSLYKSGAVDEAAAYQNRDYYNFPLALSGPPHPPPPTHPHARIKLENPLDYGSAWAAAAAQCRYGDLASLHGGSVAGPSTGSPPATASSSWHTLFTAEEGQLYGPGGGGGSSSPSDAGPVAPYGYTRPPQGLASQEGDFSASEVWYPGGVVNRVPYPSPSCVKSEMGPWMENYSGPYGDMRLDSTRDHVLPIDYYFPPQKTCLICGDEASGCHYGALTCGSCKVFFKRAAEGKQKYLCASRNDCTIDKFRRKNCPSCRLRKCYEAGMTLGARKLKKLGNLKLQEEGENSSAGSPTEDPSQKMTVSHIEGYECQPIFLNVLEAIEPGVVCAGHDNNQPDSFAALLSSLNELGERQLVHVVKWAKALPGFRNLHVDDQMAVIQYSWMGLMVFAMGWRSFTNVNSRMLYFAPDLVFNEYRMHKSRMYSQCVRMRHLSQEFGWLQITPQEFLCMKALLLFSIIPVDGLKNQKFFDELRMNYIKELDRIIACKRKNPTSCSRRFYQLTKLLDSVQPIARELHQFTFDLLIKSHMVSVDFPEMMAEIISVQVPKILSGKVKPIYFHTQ
pIC50: −log10 of the molar value.
observation type: pIC50

>>> recorded_value("CC1(C)C(=O)N(c2ccc(C#N)c(C(F)(F)F)c2)C(=O)N1Cc1ccc(-c2cn(CCCCCCC(=O)NO)nn2)cc1")
6.16

----------
# assay target: Histone deacetylase 1 (Homo sapiens)
# experiment notes: Inhibition of recombinant human HDAC1 using fluorogenic substrate measured after 60 mins by fluorescence based assay
observation type: IC50 (µM)

>>> recorded_value("O=C(CCn1cc(CCn2nc3c(Br)c(Br)c(Br)c(Br)c3n2)nn1)NO")
2.2

----------
# assay target: Protein deacetylase HDAC6 (Homo sapiens, UniProt Q9UBN7)
# experiment notes: Inhibition of full-length recombinant human HDAC6 (1 to 1215 residues) expressed in Sf9 insect cells using fluorogenic substrate incubated for 30 mins by fluorescence based plate reader analysis
observation type: IC50

>>> recorded_value("CCCc1nn(C)c2c(=O)[nH]c(-c3cc(CC4CC(C(=O)NO)C4)ccc3OCC)nc12 (stereo unspecified)")
"81 nM"

----------
# assay target: Histone deacetylase 8 (Homo sapiens, UniProt Q9BY41)
# Sequence (Q9BY41 whole entry): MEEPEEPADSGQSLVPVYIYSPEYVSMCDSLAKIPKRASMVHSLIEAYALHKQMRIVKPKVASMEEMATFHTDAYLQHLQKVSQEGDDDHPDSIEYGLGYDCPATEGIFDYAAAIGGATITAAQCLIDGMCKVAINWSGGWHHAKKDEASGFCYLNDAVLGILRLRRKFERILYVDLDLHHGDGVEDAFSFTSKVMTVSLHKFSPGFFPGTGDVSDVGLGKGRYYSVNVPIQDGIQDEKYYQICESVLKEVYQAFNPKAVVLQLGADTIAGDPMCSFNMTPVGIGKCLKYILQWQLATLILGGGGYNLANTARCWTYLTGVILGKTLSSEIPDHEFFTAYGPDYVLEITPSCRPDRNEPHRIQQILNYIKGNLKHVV
# experiment notes: Inhibition of HDAC8 (unknown origin)
observation type: IC50 (µM)

>>> recorded_value("COc1cccc2c1C(=O)c1c(O)c3c(c(O)c1C2=O)C[C@@](O)(C(C)=O)C[C@@H]3O[C@H]1C[C@H](N)[C@H](O)[C@H](C)O1")
0.22

----------
# assay target: High affinity cGMP-specific 3',5'-cyclic phosphodiesterase 9A (Homo sapiens)
# experiment notes: Inhibition of N-terminal GST-tagged full-length human PDE9A2 expressed in baculovirus infected Sf9 insect cells using cGMP as substrate incubated for 30 mins by HTRF assay
pIC50: −log10 of the molar value.
observation type: pIC50

>>> recorded_value("CCCc1nn(C)c2c(=O)[nH]c(-c3cc(CC4CC(C(=O)NO)C4)ccc3OCC)nc12 (stereo unspecified)")
"< 5.00"

----------
Catalogue of IC50 values
# assay target: UniProtKB O15379
# Sequence (O15379 whole entry): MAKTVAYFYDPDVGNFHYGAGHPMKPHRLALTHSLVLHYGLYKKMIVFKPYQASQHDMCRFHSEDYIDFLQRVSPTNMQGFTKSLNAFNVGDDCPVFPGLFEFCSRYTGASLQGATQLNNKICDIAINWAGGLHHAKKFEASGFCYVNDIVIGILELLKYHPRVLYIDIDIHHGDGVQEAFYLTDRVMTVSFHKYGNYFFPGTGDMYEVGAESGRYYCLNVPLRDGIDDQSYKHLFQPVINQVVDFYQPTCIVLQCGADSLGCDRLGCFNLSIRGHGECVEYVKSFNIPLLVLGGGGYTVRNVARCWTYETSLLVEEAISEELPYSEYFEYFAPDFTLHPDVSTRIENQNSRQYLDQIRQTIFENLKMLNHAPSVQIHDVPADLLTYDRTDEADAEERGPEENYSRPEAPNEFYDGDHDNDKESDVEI
# experiment notes: Inhibition of recombinant human HDAC3 expressed in baculovirus infected Hi-5 insect cells using Ac-Lys-Tyr-Lys (epsilon-acetyl)-AMC as substrate incubated for 3 to 24 hrs by fluorescence based plate reader analysis
observation type: IC50 (µM)

>>> recorded_value("COc1cc([C@@H]2c3cc4c(cc3C[C@H]3COC(=O)[C@@H]32)OCO4)cc(OC)c1OC(=O)CC(=O)NCc1ccc(C(=O)Nc2ccccc2N)cc1")
1
>>> recorded_value("COc1cc([C@@H]2c3cc4c(cc3C[C@H]3COC(=O)[C@@H]32)OCO4)cc(OC)c1OC(=O)CC(=O)Nc1ccc(C(=O)Nc2ccccc2N)cc1")
5.3

----------
Catalogue of pIC50 values
# assay target: Phosphatidylinositol 4,5-bisphosphate 3-kinase catalytic subunit alpha isoform (Homo sapiens, UniProt P42336)
# Sequence (P42336 whole entry, canonical isoform): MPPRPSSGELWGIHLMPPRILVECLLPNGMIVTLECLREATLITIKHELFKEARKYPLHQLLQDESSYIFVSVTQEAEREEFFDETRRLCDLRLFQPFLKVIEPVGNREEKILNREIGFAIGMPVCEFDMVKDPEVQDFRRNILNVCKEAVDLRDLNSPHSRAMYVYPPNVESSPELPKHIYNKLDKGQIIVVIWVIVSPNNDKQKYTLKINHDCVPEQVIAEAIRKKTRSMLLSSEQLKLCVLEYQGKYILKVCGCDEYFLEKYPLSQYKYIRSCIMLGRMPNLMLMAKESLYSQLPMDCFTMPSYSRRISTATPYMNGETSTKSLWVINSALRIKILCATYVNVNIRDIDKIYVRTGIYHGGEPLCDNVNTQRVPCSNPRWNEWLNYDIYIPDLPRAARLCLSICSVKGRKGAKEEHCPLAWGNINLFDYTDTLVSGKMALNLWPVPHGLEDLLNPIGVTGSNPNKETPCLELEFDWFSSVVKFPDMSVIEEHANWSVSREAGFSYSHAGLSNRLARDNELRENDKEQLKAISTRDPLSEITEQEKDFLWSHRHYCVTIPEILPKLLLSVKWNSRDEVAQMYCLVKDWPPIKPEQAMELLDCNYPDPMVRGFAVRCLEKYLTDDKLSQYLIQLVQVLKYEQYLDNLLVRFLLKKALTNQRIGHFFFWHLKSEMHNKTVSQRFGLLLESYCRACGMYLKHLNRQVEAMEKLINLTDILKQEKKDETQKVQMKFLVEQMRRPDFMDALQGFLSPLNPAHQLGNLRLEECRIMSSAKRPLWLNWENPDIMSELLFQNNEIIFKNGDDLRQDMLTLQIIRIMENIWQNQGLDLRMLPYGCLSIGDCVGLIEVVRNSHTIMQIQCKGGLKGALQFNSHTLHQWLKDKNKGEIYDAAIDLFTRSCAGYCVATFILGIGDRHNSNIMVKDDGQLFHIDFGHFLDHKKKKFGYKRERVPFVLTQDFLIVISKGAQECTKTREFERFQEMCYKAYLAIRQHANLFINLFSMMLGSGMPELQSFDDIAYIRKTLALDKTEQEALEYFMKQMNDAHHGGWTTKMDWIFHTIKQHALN
# experiment notes: Inhibition of PI3K-alpha (unknown origin)
pIC50: −log10 of the molar value.
observation type: pIC50

>>> recorded_value("O=C(NO)c1ccc(/C=N/NC(=O)c2cc(N3CCOCC3)nc(-c3cccc4[nH]ncc34)n2)cc1")
8.08
>>> recorded_value("O=C(NO)c1ccc(/C=N/NC(=O)c2cc(N3CCOCC3)nc(-c3cccc(O)c3)n2)cc1")
7.33

----------
# assay target: Histone deacetylase 5 (Homo sapiens, UniProt Q9UQL6)
# Sequence (Q9UQL6 whole entry): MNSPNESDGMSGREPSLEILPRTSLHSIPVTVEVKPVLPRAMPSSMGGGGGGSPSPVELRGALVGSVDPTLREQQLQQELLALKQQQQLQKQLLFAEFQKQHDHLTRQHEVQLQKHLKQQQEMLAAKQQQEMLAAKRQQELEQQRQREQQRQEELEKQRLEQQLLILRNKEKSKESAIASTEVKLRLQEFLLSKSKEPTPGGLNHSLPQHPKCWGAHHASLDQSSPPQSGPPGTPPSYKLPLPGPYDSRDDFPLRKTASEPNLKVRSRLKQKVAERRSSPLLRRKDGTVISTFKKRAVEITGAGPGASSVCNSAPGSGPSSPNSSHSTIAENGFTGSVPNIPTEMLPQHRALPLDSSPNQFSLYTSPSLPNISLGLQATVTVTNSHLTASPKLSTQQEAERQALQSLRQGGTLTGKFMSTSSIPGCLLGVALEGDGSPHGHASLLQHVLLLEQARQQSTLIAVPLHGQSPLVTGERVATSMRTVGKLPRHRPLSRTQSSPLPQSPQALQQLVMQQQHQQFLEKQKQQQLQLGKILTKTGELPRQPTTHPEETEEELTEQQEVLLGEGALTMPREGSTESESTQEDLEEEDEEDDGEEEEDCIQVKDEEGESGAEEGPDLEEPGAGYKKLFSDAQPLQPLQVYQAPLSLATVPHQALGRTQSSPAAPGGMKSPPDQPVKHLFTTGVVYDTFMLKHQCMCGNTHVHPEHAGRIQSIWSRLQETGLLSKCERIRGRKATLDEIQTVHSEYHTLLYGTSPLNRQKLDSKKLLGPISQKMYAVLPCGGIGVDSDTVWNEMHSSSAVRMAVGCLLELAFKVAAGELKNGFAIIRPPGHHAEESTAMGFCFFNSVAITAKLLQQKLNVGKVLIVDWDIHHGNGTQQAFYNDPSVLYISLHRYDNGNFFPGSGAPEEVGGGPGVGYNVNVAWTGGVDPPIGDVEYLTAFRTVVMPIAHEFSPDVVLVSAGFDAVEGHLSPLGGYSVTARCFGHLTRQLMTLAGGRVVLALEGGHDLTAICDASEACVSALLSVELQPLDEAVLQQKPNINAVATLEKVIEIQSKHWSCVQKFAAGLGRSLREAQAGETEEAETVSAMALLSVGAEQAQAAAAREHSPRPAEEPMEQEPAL
pIC50: −log10 of the molar value.
observation type: pIC50

>>> recorded_value("Cn1c(CCCC(=O)O)nc2cc(N(CCCl)CCCl)ccc21")
8.00

----------
# assay target: cGMP-specific 3',5'-cyclic phosphodiesterase (Homo sapiens, UniProt O76074)
# experiment notes: Inhibition of PDE5A (unknown origin)
observation type: IC50 (nM)

>>> recorded_value("CCCc1nn(C)c2c(=O)[nH]c(-c3cc(Cc4ccc(C(=O)Nc5ccccc5N)cc4)ccc3OCC)nc12")
114

----------
# assay target: Histone deacetylase 1 (Homo sapiens)
# experiment notes: Inhibition of HDAC1 (unknown origin) using RHKK(Ac) as substrate incubated for 30 mins by fluorescence based assay
observation type: IC50 (nM)

>>> recorded_value("Nc1ccccc1NC(=O)c1ccc(CCCC(=O)Nc2ccc(C3CC3N)cc2)cc1 (stereo unspecified)")
140

----------
# assay target: Histone deacetylase 1 (Homo sapiens, UniProt Q13547)
# Sequence (Q13547 whole entry): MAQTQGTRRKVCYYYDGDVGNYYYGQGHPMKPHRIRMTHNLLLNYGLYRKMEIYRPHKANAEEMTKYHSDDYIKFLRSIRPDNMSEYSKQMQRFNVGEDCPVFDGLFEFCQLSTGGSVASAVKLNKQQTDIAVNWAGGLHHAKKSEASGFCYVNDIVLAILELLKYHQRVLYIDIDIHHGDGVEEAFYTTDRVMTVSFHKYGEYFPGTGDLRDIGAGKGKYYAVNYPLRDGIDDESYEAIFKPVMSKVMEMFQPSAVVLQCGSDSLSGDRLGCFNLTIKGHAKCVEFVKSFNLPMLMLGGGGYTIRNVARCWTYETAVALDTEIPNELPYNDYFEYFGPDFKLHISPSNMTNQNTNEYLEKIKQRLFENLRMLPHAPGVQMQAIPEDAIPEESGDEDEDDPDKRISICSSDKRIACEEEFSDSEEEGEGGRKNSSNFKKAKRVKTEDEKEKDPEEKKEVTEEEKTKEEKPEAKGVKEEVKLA
# experiment notes: Inhibition of His-tagged recombinant human HDAC1 (482 residues) expressed in baculovirus infected insect cells using FLUOR DE LYS-SIRT1 as substrate preincubated for 5 mins followed by substrate addition measured after 30 mins by fluorescence based assay
observation type: IC50 (nM)

>>> recorded_value("O=C(CCCCCNC(=O)c1cccc2cc3ccccc3nc12)NO")
16.6

----------
# assay target: Histone deacetylase 1 (Homo sapiens, UniProt Q13547)
# experiment notes: Inhibition of recombinant human HDAC1 using Boc-L-Lys (Ac)-AMC as substrate incubated for 35 mins by microplate reader analysis
pIC50: −log10 of the molar value.
observation type: pIC50

>>> recorded_value("O=C(CCCCc1cn(-c2ccc(C(=O)c3c(-c4ccc(O)cc4)sc4cc(O)ccc34)cc2)nn1)NO")
5.74

----------
# assay target: Protein deacetylase HDAC6 (Homo sapiens, UniProt Q9UBN7)
# Sequence (Q9UBN7 whole entry): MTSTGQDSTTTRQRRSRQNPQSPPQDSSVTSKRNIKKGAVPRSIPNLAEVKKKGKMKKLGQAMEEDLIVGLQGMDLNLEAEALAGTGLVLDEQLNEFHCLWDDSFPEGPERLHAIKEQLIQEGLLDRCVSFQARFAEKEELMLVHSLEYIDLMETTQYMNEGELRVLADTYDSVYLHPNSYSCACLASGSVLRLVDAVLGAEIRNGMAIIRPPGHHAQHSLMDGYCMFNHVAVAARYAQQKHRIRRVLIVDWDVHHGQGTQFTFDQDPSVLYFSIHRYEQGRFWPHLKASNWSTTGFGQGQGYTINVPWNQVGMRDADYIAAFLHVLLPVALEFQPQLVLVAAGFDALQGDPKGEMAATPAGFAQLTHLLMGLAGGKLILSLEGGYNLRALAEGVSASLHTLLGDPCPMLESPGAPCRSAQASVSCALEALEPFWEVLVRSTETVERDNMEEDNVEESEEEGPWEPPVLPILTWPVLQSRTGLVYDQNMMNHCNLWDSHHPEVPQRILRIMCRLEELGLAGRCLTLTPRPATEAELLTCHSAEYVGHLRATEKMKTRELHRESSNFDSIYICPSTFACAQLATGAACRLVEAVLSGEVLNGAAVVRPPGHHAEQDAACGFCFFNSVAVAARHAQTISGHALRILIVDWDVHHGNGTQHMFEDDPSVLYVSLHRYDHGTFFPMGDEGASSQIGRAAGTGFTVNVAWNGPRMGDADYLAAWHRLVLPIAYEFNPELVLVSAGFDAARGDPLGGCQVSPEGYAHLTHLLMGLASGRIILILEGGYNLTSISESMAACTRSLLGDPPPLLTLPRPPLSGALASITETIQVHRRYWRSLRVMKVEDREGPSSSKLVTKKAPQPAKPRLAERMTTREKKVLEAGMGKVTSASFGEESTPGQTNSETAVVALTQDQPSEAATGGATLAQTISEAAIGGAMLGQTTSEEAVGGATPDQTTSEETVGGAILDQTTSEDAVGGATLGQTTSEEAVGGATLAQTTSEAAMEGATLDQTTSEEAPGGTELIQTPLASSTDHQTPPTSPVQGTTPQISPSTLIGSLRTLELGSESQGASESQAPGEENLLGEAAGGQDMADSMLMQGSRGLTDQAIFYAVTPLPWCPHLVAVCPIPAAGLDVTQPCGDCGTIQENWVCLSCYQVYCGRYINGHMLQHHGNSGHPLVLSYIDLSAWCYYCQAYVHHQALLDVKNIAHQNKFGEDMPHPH
# experiment notes: Inhibition of HDAC6 (unknown origin)
pIC50: −log10 of the molar value.
Catalogue of pIC50 values
observation type: pIC50

>>> recorded_value("C[C@@H](c1nc2c(cnn2C2CCCC2)c(=O)[nH]1)N1CC(Cc2ccc(C(=O)Nc3ccccc3N)cc2)C1")
"< 5.00"
>>> recorded_value("Cn1c(CCCC(=O)O)nc2cc(N(CCCl)CCCl)ccc21 [BENDAMUSTINE]")
8.00
>>> recorded_value("CCCc1nn(C)c2c(=O)[nH]c(-c3cc(Cc4ccc(C(=O)Nc5ccccc5N)cc4)ccc3OCC)nc12")
"< 4.70"
